assay: Cmax in tumor of NOD-SCID mouse model xenografted with human PC-3 cells at 25 mg/kg, IG measured upto 48 hrs by LC-MS/MS analysis; type: ADME, organism-based, Neoplasm; design: time < 48 hrs, dose 25 mg/kg, route ig; details: po
Measured metric: Cmax (ng/g)
Record the value in ng/g, omitting the unit from your answer.

The recorded Cmax for entry O=C(CCl)NC1CCN(c2cnc(-c3ccccc3)c(-c3ccccc3)n2)CC1 equals 182

* * *

pIC50: recorded values
tested on: MGC-803; assay: Antitumor activity against human MGC-803 cells assessed as cell growth inhibition incubated for 72 hrs by MTT assay; type: functional, cell-based; settings: MGC-803, 72 h
Lab note: report pIC50 as minus log10 of the concentration in molar units, number only.

Example compounds with recorded pIC50:
- Smiles notation: "O=C(NC1CCN(c2cnc(-c3ccccc3)c(-c3ccccc3)n2)CC1)c1ccccc1"
  pIC50: 4.38
- Smiles notation: "CC(C)(C)OC(=O)N1CCN(c2cnc(-c3ccccc3)c(-c3ccccc3)n2)CC1"
  pIC50: 4.33
- Smiles notation: "O=C(NCC1CCN(c2cnc(-c3ccccc3)c(-c3ccccc3)n2)CC1)N1CCOCC1"
  pIC50: 4.23

The recorded pIC50 for entry CC(C)(C)C(=O)NCC1CCN(c2cnc(-c3ccc(S(C)(=O)=O)cc3)c(-c3ccccc3)n2)CC1 equals 4.06

The recorded pIC50 for entry CCC(=O)NCC1CCN(c2cnc(-c3ccccc3)c(-c3ccccc3)n2)CC1 equals 4.36

The recorded pIC50 for entry O=C(CCl)NC1CCN(c2cnc(-c3ccccc3)c(-c3ccccc3)n2)CC1 equals 5.15

The recorded pIC50 for entry CC(C)(C)OC(=O)NCC1CCN(c2cnc(-c3ccccc3)c(-c3ccccc3)n2)CC1 equals 4.63

* * *

test: Metabolic stability in rat liver microsome assessed as half life at 20 umol/L preincubated for 5 mins followed by NADPH addition measured upto 60 mins by LC-MS/MS analysis; format: ADME; conditions: liver microsomes, dose 20 µmol/L, time < 65 min
Measured metric: half-life at 20 µM (min)
Record the value in min, omitting the unit from your answer.

The recorded half-life at 20 µM for entry O=C(CCl)NC1CCN(c2cnc(-c3ccccc3)c(-c3ccccc3)n2)CC1 equals 16.3

* * *

molecular target: S-phase kinase-associated protein 2/Cyclin-dependent kinases regulatory subunit 1/S-phase kinase-associated protein 1 (Homo sapiens, UniProt Q13309); assay: Inhibition of GST-tagged Skp2/Skp1 (unknown origin)/His6-tagged Cks1 (unknown origin) interaction preincubated with Skp2/Skp1 for 10 mins followed by Cks1 addition measured after 20 mins by HTRF assay; type: protein assay
Sequence (P61024 whole entry): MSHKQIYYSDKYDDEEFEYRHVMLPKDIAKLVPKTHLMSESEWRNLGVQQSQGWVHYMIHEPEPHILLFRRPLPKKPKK
Sequence (Q13309 whole entry): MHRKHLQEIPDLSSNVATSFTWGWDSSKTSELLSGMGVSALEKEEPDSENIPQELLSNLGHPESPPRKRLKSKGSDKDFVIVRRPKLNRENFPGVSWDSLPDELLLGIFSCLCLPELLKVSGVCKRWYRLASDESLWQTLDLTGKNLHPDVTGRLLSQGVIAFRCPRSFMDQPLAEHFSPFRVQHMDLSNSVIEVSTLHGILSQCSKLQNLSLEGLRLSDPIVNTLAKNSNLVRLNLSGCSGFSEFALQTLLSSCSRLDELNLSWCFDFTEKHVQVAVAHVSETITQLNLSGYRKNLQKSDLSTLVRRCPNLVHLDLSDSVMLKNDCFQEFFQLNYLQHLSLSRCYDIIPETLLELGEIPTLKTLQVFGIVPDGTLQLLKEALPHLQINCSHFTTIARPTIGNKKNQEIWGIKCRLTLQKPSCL
Sequence (P63208 whole entry, further chain): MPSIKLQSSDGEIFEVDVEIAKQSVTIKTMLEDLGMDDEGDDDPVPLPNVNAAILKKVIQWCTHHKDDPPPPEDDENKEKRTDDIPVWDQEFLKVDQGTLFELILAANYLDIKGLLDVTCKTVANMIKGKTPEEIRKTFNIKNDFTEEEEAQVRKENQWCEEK
IC50: recorded values

Example compounds with recorded IC50:
- Compound: "O=C(C1CC1)N1CCN(c2cnc(-c3ccccc3)c(-c3ccccc3)n2)CC1"
  IC50: "5.8 µM"
- Compound: "CC1CCN(c2cnc(-c3ccccc3)c(-c3ccccc3)n2)CC1"
  IC50: "> 50 µM"
- Compound: "O=C(NC1CCN(c2cnc(-c3ccccc3)c(-c3ccccc3)n2)CC1)OCc1ccccc1"
  IC50: "> 25 µM"
- Compound: "CC(C)(C)C(=O)NCC1CCN(c2cnc(-c3cn[nH]c3)c(-c3ccccc3)n2)CC1"
  IC50: "> 25 µM"

The recorded IC50 for entry CC(C)N(CCCCOCC(=O)Nc1nccs1)c1cnc(-c2ccccc2)c(-c2ccccc2)n1 equals > 50 µM

The recorded IC50 for entry CC(C)N(CCCCOCC(=O)O)c1cnc(-c2ccccc2)c(-c2ccccc2)n1 [LASELIPAG] equals > 50 µM

The recorded IC50 for entry O=C(CBr)N1CCN(c2cnc(-c3ccccc3)c(-c3ccccc3)n2)CC1 equals > 25 µM

The recorded IC50 for entry CCS(=O)(=O)NC1CCN(c2cnc(-c3ccccc3)c(-c3ccccc3)n2)CC1 equals > 25 µM

The recorded IC50 for entry CC(C)(C)OC(=O)NC1CCN(c2cnc(-c3ccccc3)c(-c3ccccc3)n2)C1 (centres undefined) equals > 25 µM

* * *

test system: PC-3; test: Antitumor activity against human PC-3 cells assessed as cell growth inhibition incubated for 72 hrs by MTT assay; format: functional, cell-based; settings: PC-3, 72 h
Measured metric: IC50 (µM)
Record the value in µM, omitting the unit from your answer.

Example compounds with recorded IC50:
- Smiles notation: "CC(C)(C)OC(=O)NCC1CCN(c2cnc(-c3ccccc3)c(-c3ccccc3)n2)CC1"
  System tested: "PC-3"
  IC50 [µM]: 11.7
- Smiles notation: "CC(C)(C)C(=O)NCC1CCN(c2cnc(-c3ccc(S(C)(=O)=O)cc3)c(-c3ccccc3)n2)CC1"
  System tested: "PC-3"
  IC50 [µM]: 63.7

In the following, a different compound is considered.
The recorded IC50 for entry CC(C)(C)C(=O)NCC1CCN(c2cnc(-c3ccccc3)c(-c3ccccc3)n2)CC1 equals 68

* * *

system: PC-9; assay: Antitumor activity against human PC-9 cells overexpressing Skp2 assessed as cell growth inhibition incubated for 72 hrs by MTT assay; type: functional, cell-based; conditions: PC-9, 72 h
Measured metric: pIC50
Lab note: report pIC50 as minus log10 of the concentration in molar units, number only.

The recorded pIC50 for entry O=C(CCl)NC1CCN(c2cnc(-c3ccccc3)c(-c3ccccc3)n2)CC1 equals 5.09

* * *

experiment: AUClast in plasma of NOD-SCID mouse model xenografted with human PC-3 cells at 25 mg/kg, IG measured upto 48 hrs by LC-MS/MS analysis; format: ADME, organism-based; design: dose 25 mg/kg, time < 48 hrs, route ig; conditions: po
Measured metric: AUC(0-t) at 48 h
Param answer (str): number followed by unit.

The recorded AUC(0-t) at 48 h for entry O=C(CCl)NC1CCN(c2cnc(-c3ccccc3)c(-c3ccccc3)n2)CC1 equals 3230 ng·h/mL

* * *

experiment: MRTlast in plasma of NOD-SCID mouse model xenografted with human PC-3 cells at 25 mg/kg, IG measured upto 48 hrs by LC-MS/MS analysis; type: ADME, organism-based; conditions: po
Measured metric: MRT last at 48 h (h)
Record the value in h, omitting the unit from your answer.

The recorded MRT last at 48 h for entry O=C(CCl)NC1CCN(c2cnc(-c3ccccc3)c(-c3ccccc3)n2)CC1 equals 13.4

* * *

biological target: S-phase kinase-associated protein 2/Cyclin-dependent kinases regulatory subunit 1/S-phase kinase-associated protein 1 (Homo sapiens, UniProt Q13309); assay: Inhibition of GST-tagged Skp2/Skp1 (unknown origin)/His6-tagged Cks1 (unknown origin) interaction preincubated with Skp2/Skp1 for 10 mins followed by Cks1 addition measured after 20 mins by HTRF assay; format: protein assay
pIC50: −log10 of the molar value.
pIC50: recorded values

Example compounds with recorded pIC50:
- Compound: "CC(C)(C)C(=O)N1CCN(c2cnc(-c3ccccc3)c(-c3ccccc3)n2)CC1"
  Measured metric: "pIC50"
  Value reported: 4.88
- Compound: "CN1CCN(c2cnc(-c3ccccc3)c(-c3ccccc3)n2)CC1"
  Measured metric: "pIC50"
  Value reported: "< 4.30"
- Compound: "CC(=O)NCC1CCN(c2cnc(-c3ccccc3)c(-c3ccccc3)n2)CC1"
  Measured metric: "pIC50"
  Value reported: 4.91
- Compound: "CN(c1cnc(-c2ccccc2)c(-c2ccccc2)n1)C1CCCCC1"
  Measured metric: "pIC50"
  Value reported: "< 4.30"

The recorded pIC50 for entry OCC1CCN(c2cnc(-c3ccccc3)c(-c3ccccc3)n2)CC1 equals < 4.30

The recorded pIC50 for entry CC(C)(C)C(=O)NC1CCN(c2cnc(-c3ccccc3)c(-c3ccccc3)n2)CC1 equals 4.99

* * *

experiment: Clearance in plasma of NOD-SCID mouse model xenografted with human PC-3 cells at 25 mg/kg, IG measured upto 48 hrs by LC-MS/MS analysis; type: ADME, organism-based; details: po
Measured metric: CL/F

The recorded CL/F for entry O=C(CCl)NC1CCN(c2cnc(-c3ccccc3)c(-c3ccccc3)n2)CC1 equals 118 mL/min/kg

* * *

assay: Half life in plasma of NOD-SCID mouse model xenografted with human PC-3 cells at 25 mg/kg, IG measured upto 48 hrs by LC-MS/MS analysis; format: ADME, organism-based; conditions: po
Measured metric: half-life
Param answer (str): number followed by unit.

The recorded half-life for entry O=C(CCl)NC1CCN(c2cnc(-c3ccccc3)c(-c3ccccc3)n2)CC1 equals 14.1 h

* * *

target: S-phase kinase-associated protein 2 (Homo sapiens); assay: Inhibition of Skp2 in human PC-3 cells treated with shRNA 5'-GGACCTATCGAACTCAGTTAT-3' incubated upto 48 hrs by Western blot analysis (reference value: 4.8 +/- 0.5 microM); assay type: cell-based
Sequence (Q13309 whole entry): as the sequence (Q13309 whole entry) above
Measured metric: pIC50
Lab note: report pIC50 as minus log10 of the concentration in molar units, number only.

pIC50 of O=C(CCl)NC1CCN(c2cnc(-c3ccccc3)c(-c3ccccc3)n2)CC1 , assay on S-phase kinase-associated protein 2 (Homo sapiens), is 4.41

* * *

molecular target: S-phase kinase-associated protein 2/Cyclin-dependent kinases regulatory subunit 1/S-phase kinase-associated protein 1 (Homo sapiens); assay: Inhibition of GST-tagged Skp2/Skp1 (unknown origin)/His6-tagged Cks1 (unknown origin) interaction by AlphaScreen assay; format: protein assay
Measured metric: pIC50
Lab note: report pIC50 as minus log10 of the concentration in molar units, number only.

The recorded pIC50 for entry O=C(OC12CC3CC(CC(C3)C1)C2)c1ccc(NCc2cc(O)ccc2O)cc1 equals 4.44
